Ref: patent US20230094463A1

target-desc: T1, Human Galectin-3 protein (Acro Biosystems, GA3-H5129) (human, UniProt P17931 2-250)
T1 construct: Bought protein; also called Gal3-ECD-His; Gal3-His; not shown: linker-spaced 6-histidine tag
T1 sequence (P17931 2-250): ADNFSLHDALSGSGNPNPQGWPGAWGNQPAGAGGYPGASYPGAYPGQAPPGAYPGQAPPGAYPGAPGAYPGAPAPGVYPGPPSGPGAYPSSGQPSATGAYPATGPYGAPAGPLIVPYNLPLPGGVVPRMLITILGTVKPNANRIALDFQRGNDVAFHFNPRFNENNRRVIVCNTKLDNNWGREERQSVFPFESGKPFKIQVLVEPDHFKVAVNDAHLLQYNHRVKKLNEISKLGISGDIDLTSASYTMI
run-description: SPR (Biacore T200), antibody captured, Galectin-3 as analyte
Reported Kd values for the following binders.
Express the result in nM but write the number alone.

>  <binder>
2D10.2B2 (antibody, V domains shown) VH: QVQLQQSGPELVKPGASVKISCKASGYTFTDYYINWVKQRPGQGLEWIGWIYPGSNDTKYNEKFKGKATLTVDTSSSTAYMQLGSLTSEDSAVYFCANYFGCSGWFFDVWGTGTTVTVSS VL: DIVMTQAAFSNPVTLGTSASISCRSSKSLLHSDGITYLYWYLQRPGQSPQLLIYRMSNLASGVPDRFSGSGSGTDFTLRISRVEAEDVGVYYCAQMIEFPLTFGAGTILELK

>  <unit-of-measurement>
nM

>  <Kd>
0.753

$$$$
>  <binder>
6H6.2D6 (antibody, V domains shown) VH: QIQLVQSGPELKKPGETVKISCKASGYTFTTYGMSWVKQAPGKGLKWMAWINTYSGVPTYADDFKGRFAFSLETSASTAYLQINNLTNEDTATYFCARGPYAMDYWGQGTSVTVSS VL: DIQMTQTTSSLSASLGDRVTISCSASQGISNYLNWYQQKPDGTVKLLIYYTSSLHSGVPSRFSGSGSGTDYSLTISNLEPEDIATYYCQQYSELPYTFGSGTKLEIK

>  <unit-of-measurement>
nM

>  <Kd>
4.86

$$$$

Task item: Field request: Kd | item: 20H5.A3 (antibody, V domains shown) VH: QIQLVQSGPELKKPGESVKISCKASGYAFTTYGMSWVQQAPGKGLKWMGWVNTYSGVPTCADDFKGRFAFSLETSASTAYLQINNLRNEDTATYFCARGPYAMDYWGQGTSVTVSS VL: DIQMTQTTSSLSASLGDRVTINCSASQDISNYLNWYQQKPDGTVKLLIYYTSSLLSGVPSRFSGSGSGTDYSLTISNLEPEDIATYFCQQYSKLPYTFGSGTHLEIK
Reply: 3.95
